# TARGET_SYSTEM: T1, human GIP receptor (human, UniProt P48546 22-466)
# T1 sequence (looked up): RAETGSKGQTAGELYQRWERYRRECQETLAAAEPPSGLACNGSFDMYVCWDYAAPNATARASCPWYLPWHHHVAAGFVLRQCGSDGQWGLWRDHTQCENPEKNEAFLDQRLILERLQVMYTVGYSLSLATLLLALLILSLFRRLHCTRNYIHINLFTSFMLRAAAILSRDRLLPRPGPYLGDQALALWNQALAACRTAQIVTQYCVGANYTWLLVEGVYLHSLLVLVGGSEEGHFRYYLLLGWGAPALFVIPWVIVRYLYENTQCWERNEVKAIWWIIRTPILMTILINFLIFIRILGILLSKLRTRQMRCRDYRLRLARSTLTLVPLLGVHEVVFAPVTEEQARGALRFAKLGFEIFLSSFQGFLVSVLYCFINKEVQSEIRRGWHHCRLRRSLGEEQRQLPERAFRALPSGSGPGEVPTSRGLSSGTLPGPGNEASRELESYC
# ASSAY_PROCEDURE: cell-based or functional assay
We label by threshold. Values of cAMP EC50 strictly beneath 0.01 nM are true (1). Values of 0.01 nM and up are false (0).

Prompt: Determine if IP263 (Fc fusion) YSEGTFTSDYSKLLEEEAVRLFIEWLVKQPGGGGGSGGGGSGGGGSGGGGSATHTCPPCPAPEF shows cAMP EC50 strictly lower than 0.01 nM.
Completion: false (0)

Prompt: Determine if IP285 (Fc fusion) YSEGTFTSDYSKLLEEEAVRLFIEWLVKGPGGGGGGGGGGGGGGGGGGGGGGGATHTCPPC shows cAMP EC50 strictly lower than 0.01 nM.
Completion: true (1)

Prompt: Determine if IP281 (Fc fusion) YSEGTFTSDYSKLLEEEAVRLFIEWLVKGPGGGGGSGGGGSGGGGSGGGGSACPPC shows cAMP EC50 strictly lower than 0.01 nM.
Completion: false (0)

Prompt: Determine if IP265 (Fc fusion) YSEGTFTSDYSKLLEEEAVRLFIEWLVKGPGKGGGSGGGGSGGGGSGGGGSATHTCPPCPAPEF shows cAMP EC50 strictly lower than 0.01 nM.
Completion: false (0)
